Origin of measurements: patent US20230270721A1

# assay-target: BAX (Homo sapiens)
# Construct: Human full-length (1-192) wild-type BAX (Q07812); made in house; host or cells: E. coli BL21 (DE3) CodonPlus (DE3)-RIPL
# measurement-notes: Competitive fluorescence polarization binding assay (FPA), BAX / FITC-BIM-SAHB
# setup-conditions: BAX 150 nM, FITC-BIM-SAHB 25 nM, 10-minute time point; read-out: half-maximal inhibition IC50, competition of FITC-BIM-SAHB
# Experimental: Fluorescence polarization assays (FPA) were performed as previously described (Gavathiotis, E., et al. Nat Chem Biol 8, 639-645 (2012)). Direct binding isotherms of BIM-SAHB were measured by incubated FITC-BIM-SAHB (25 nM) with serial dilutions of full-length BAX alone or in the presence of 0.5 or 1 µM EO. […] Measurements were taken at 10-minute intervals over 60 minutes on a TECAN F200 PRO microplate reader. […]
quantity-measured: pIC50
Give bare numbers, as −log10 of the molar value.

Task item: Retrieve pIC50 measured for CC1=NN(c2ccc(C)c(C)c2)C(=O)/C1=N\Nc1cccc(-c2cccc(C(=O)O)c2)c1O [EO, eltrombopag] and print it.
Reply: 6.68

* * *

# assay-target: BAX (Homo sapiens)
# Construct: Human full-length (1-192) wild-type BAX (Q07812); made in house; host or cells: E. coli BL21 (DE3) CodonPlus (DE3)-RIPL
# measurement-notes: Competitive fluorescence polarization binding assay (FPA), BAX / FITC-BIM-SAHB
# setup-conditions: BAX 150 nM, FITC-BIM-SAHB 25 nM; read-out: IC50, competition of FITC-BIM-SAHB by FPA
pIC50: −log10 of the molar value.
quantity-measured: pIC50

Task item: Recall the reported pIC50 of COC(=O)c1cccc(-c2cccc(NN=C3C(=O)N(c4ccc(C)c(C)c4)N=C3C)c2O)c1 when tested on BAX (Homo sapiens).
Reply: < 5.30

* * *

# assay-target: BAX (Homo sapiens, UniProt Q07812)
# Construct: Human full-length (1-192) wild-type BAX (Q07812); made in house; host or cells: E. coli BL21 (DE3) CodonPlus (DE3)-RIPL
# Sequence (Q07812 whole entry): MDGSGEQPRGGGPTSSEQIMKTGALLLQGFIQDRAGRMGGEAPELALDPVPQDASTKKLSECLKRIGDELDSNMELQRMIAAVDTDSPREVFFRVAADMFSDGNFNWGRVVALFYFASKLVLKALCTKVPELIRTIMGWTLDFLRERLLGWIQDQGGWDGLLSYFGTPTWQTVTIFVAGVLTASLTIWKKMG
# measurement-notes: Liposomal translocation assay with NBD-labeled BAX
# Type: biochemical
# setup-conditions: NBD-labeled BAX 800 nM, BIM BH3 1 µM, 120 minutes; read-out: BIM IC50, inhibition of BAX translocation
quantity-measured: pIC50
Answers are plain numbers, as −log10 of the molar value.

Task item: Report measured pIC50; entry is CC1=NN(c2ccc(C)c(C)c2)C(=O)/C1=N\Nc1cccc(-c2cccc(C(=O)O)c2)c1O
Reply: 5.24

* * *

# assay-target: BAX-4C (Homo sapiens, UniProt Q07812, C126S/C62S/S4C)
# Construct: Human full-length (1-192) wild-type BAX (Q07812)
# Sequence (Q07812 whole entry S4C/C62S/C126S): as the sequence (Q07812 whole entry) above, with S4C, C62S, C126S counted along it
# measurement-notes: Microscale thermophoresis (MST) direct binding
# setup-conditions: 50 nM labeled BAX; read-out: dissociation constant KD
quantity-measured: pKd
Give bare numbers, as −log10 of the molar value.

Task item: Tell me its pKd given CC1=NN(c2ccc(C)c(C)c2)C(=O)/C1=N\Nc1cccc(-c2cccc(C(=O)O)c2)c1O as the entry.
Reply: 6.84

* * *

# assay-target: BAX (Homo sapiens, UniProt Q07812)
# Construct: Human full-length (1-192) wild-type BAX (Q07812); made in house; host or cells: E. coli BL21 (DE3) CodonPlus (DE3)-RIPL
# measurement-notes: Liposomal permeabilization (ANTS/DPX release) assay
# Format: biochemical
# setup-conditions: 50 nM BAX, 30 minutes; read-out: BIM IC50, inhibition of BAX activity in liposomal release
quantity-measured: pIC50
One number for each entry, as −log10 of the molar value.

Task item: Quick one: give measured pIC50 for CC1=NN(c2ccc(C)c(C)c2)C(=O)/C1=N\Nc1cccc(-c2cccc(C(=O)O)c2)c1O
Reply: 5.33

* * *

# assay-target: BAX (Homo sapiens)
# Construct: Human full-length (1-192) wild-type BAX (Q07812); made in house; host or cells: E. coli BL21 (DE3) CodonPlus (DE3)-RIPL
# measurement-notes: Liposomal translocation assay with NBD-labeled BAX
# Type: biochemical
# setup-conditions: NBD-labeled BAX 800 nM, tBID 200 nM, 120 minutes; read-out: tBID IC50, inhibition of BAX translocation
quantity-measured: pIC50
Numbers only, as −log10 of the molar value.

Task item: Quote pIC50 reported for CC1=NN(c2ccc(C)c(C)c2)C(=O)/C1=N\Nc1cccc(-c2cccc(C(=O)O)c2)c1O please.
Reply: 5.20

* * *

# assay-target: BAX (Homo sapiens, UniProt Q07812)
# Construct: Human full-length (1-192) wild-type BAX (Q07812); made in house; host or cells: E. coli BL21 (DE3) CodonPlus (DE3)-RIPL
# measurement-notes: Liposomal permeabilization (ANTS/DPX release) assay
# Type: biochemical
# setup-conditions: 250 nM BAX at 42° C., 30 minutes; read-out: heat IC50, inhibition of BAX activity in liposomal release
quantity-measured: IC50 (µM)
Give bare numbers, in µM.

Task item: // Input: CC1=NN(c2ccc(C)c(C)c2)C(=O)/C1=N\Nc1cccc(-c2cccc(C(=O)O)c2)c1O . Output its IC50 only.
Reply: 4.5
